conditions: 288.15 K; 100 kPa; Liquid; Vibrating tube method
Numbers after ± are expanded uncertainties.

| Compound | mass density |
| --- | --- |
| CCCCOCC | 754.84 ± 0.3 kg/m3 |
| CC(C)OC(C)C | 728.69 ± 0.3 kg/m3 |
| CCOC(C)(C)C | 746.2 ± 0.3 kg/m3 |
| CCCOCCC | 752.52 ± 0.3 kg/m3 |
| CCCCCOCCCCC | 786.98 ± 0.3 kg/m3 |
| COC(C)(C)C | 745.79 ± 0.3 kg/m3 |
| CC(C)CCOCCC(C)C | 778.71 ± 0.3 kg/m3 |
| CCCCOC | 750.88 ± 0.3 kg/m3 |

---

List of mass density values.
conditions: 318.15 K; 40000 kPa; Liquid; Vibrating tube method

| Compound | mass density [kg/m3] |
| --- | --- |
| CCCCCOCCCCC | 793.82 |
| CCOC(C)(C)C | 758.08 |
| CCCOCCC | 762.84 |
| CC(C)OC(C)C | 743.01 |
| CC(C)CCOCCC(C)C | 787.22 |
| CCCCOC | 760.76 |
| CCCCOCC | 764.55 |
| COC(C)(C)C | 757.7 |

---

details: 333.15 K; 25000 kPa; Liquid; Vibrating tube method
Each item that follows carries a reported mass density.

| Molecule | Unit Info | mass density |
| --- | --- | --- |
| CCCCOCC [butyl ethyl ether] | kg/m3 | 739.43 |
| CCCCCOCCCCC [dipentyl ether] | kg/m3 | 772.87 |
| CCCCOC [butyl methyl ether] | kg/m3 | 734.64 |
| CC(C)OC(C)C [diisopropyl ether] | kg/m3 | 715.73 |
| CC(C)CCOCCC(C)C [di-(3-methylbutyl) ether] | kg/m3 | 765.79 |
| CCOC(C)(C)C [2-ethoxy-2-methylpropane] | kg/m3 | 731.42 |
| CCCOCCC [dipropyl ether] | kg/m3 | 737.47 |

---

The compounds listed here are annotated with their mass density.
conditions: 298.15 K; 55000 kPa; Liquid; Vibrating tube method

| Compound | mass density, kg/m3 |
| --- | --- |
| CCCOCCC [dipropyl ether] | 788.74 |
| CCOC(C)(C)C [2-ethoxy-2-methylpropane] | 784.85 |
| CCCCOC [butyl methyl ether] | 787.24 |
| CCCCOCC [butyl ethyl ether] | 790.19 |
| CC(C)OC(C)C [diisopropyl ether] | 770.25 |
| CC(C)CCOCCC(C)C [di-(3-methylbutyl) ether] | 809.51 |
| CCCCCOCCCCC [dipentyl ether] | 815.82 |
| COC(C)(C)C [2-methoxy-2-methylpropane] | 784.71 |

---

details: 293.15 K; 15000 kPa; Liquid; Vibrating tube method
Observable: mass density (kg/m3)

| Compound | Observable | Reported Value |
| --- | --- | --- |
| CC(C)OC(C)C | mass density | 740.69 |
| CCOC(C)(C)C | mass density | 756.83 |
| CCCCOCC | mass density | 764.45 |
| COC(C)(C)C | mass density | 756.68 |
| CC(C)CCOCCC(C)C | mass density | 786.89 |
| CCCCOC | mass density | 760.71 |
| CCCOCCC | mass density | 762.58 |
| CCCCCOCCCCC | mass density | 794.44 |

---

// mass density lookup, one value per entry
conditions: 288.15 K; 20000 kPa; Liquid; Vibrating tube method
Observable: mass density (kg/m3)

| Compound | Reported Value |
| --- | --- |
| CCOC(C)(C)C | 765.93 |
| CCCCOCC | 772.96 |
| CC(C)OC(C)C | 750.09 |
| CCCOCCC | 771.21 |
| COC(C)(C)C | 765.86 |
| CCCCCOCCCCC | 801.55 |
| CCCCOC | 769.53 |
| CC(C)CCOCCC(C)C | 794.22 |

---

Let's look at some compounds and their measured mass density.
settings: 328.15 K; 40000 kPa; Liquid; Vibrating tube method

| Compound | mass density [kg/m3] |
| --- | --- |
| CC(C)OC(C)C | 735.15 |
| CC(C)CCOCCC(C)C | 780.66 |
| CCCCOCC | 756.87 |
| CCOC(C)(C)C | 750.18 |
| CCCCOC | 752.76 |
| CCCOCCC | 755.1 |
| CCCCCOCCCCC | 787.17 |

---

conditions: 323.15 K; 20000 kPa; Liquid; Vibrating tube method
Reported mass density values are given for each entry in this list.
Observable: mass density (kg/m3)

| Compound | Reported Value |
| --- | --- |
| CC(C)CCOCCC(C)C | 768.84 |
| CCCCCOCCCCC | 776.12 |
| COC(C)(C)C | 734.2 |
| CC(C)OC(C)C | 718.83 |
| CCCOCCC | 741 |
| CCOC(C)(C)C | 734.81 |
| CCCCOCC | 743.03 |
| CCCCOC | 738.42 |

---

mass density by entry:
conditions: 333.15 K; 45000 kPa; Liquid; Vibrating tube method
± gives the expanded uncertainty stated by the source.
Observable: mass density

| Compound | Observable | Reported Value |
| --- | --- | --- |
| CC(C)CCOCCC(C)C | mass density | 780.93 ± 0.62 kg/m3 |
| CCCCCOCCCCC | mass density | 787.29 ± 0.61 kg/m3 |
| CCCCOC | mass density | 753.01 ± 0.67 kg/m3 |
| CCCCOCC | mass density | 757.13 ± 0.66 kg/m3 |
| CC(C)OC(C)C | mass density | 735.85 ± 0.7 kg/m3 |
| CCOC(C)(C)C | mass density | 750.65 ± 0.67 kg/m3 |
| CCCOCCC | mass density | 755.35 ± 0.67 kg/m3 |

---

Entries and their measured mass density follow.
settings: 283.15 K; 55000 kPa; Liquid; Vibrating tube method

| Compound | Unit Info | mass density |
| --- | --- | --- |
| CCCCOC | kg/m3 | 798.61 |
| CCCCOCC | kg/m3 | 801.25 |
| CC(C)CCOCCC(C)C | kg/m3 | 819.14 |
| COC(C)(C)C | kg/m3 | 796.13 |
| CCCCCOCCCCC | kg/m3 | 825.48 |
| CCCOCCC | kg/m3 | 800.02 |
| CCOC(C)(C)C | kg/m3 | 796.17 |
| CC(C)OC(C)C | kg/m3 | 781.56 |

---

details: 303.15 K; 20000 kPa; Liquid; Vibrating tube method
Observable: mass density (kg/m3)

| Compound | Unit Info | Reported Value |
| --- | --- | --- |
| CCCCOC | kg/m3 | 756.25 |
| CCCCCOCCCCC | kg/m3 | 790.65 |
| COC(C)(C)C | kg/m3 | 752.37 |
| CCCCOCC | kg/m3 | 760.15 |
| CC(C)CCOCCC(C)C | kg/m3 | 783.3 |
| CCCOCCC | kg/m3 | 758.26 |
| CCOC(C)(C)C | kg/m3 | 752.63 |
| CC(C)OC(C)C | kg/m3 | 736.81 |

---

settings: 308.15 K; 40000 kPa; Liquid; Vibrating tube method
Examples of compounds with documented mass density follow.
Observable: mass density (kg/m3)

| Compound | Observable | Reported Value |
| --- | --- | --- |
| CCCCOC | mass density | 768.74 |
| CCCCCOCCCCC | mass density | 800.48 |
| CCCCOCC | mass density | 772.26 |
| CC(C)OC(C)C | mass density | 750.94 |
| CCOC(C)(C)C | mass density | 766.03 |
| CCCOCCC | mass density | 770.6 |
| COC(C)(C)C | mass density | 765.75 |
| CC(C)CCOCCC(C)C | mass density | 793.86 |

---

settings: 323.15 K; 15000 kPa; Liquid; Vibrating tube method
Consider the following compounds and their measured mass density readings.

| Compound | Unit Info | mass density |
| --- | --- | --- |
| CCCCOC | kg/m3 | 733.12 |
| CCCCCOCCCCC | kg/m3 | 772.13 |
| CCCOCCC | kg/m3 | 735.84 |
| COC(C)(C)C | kg/m3 | 728.51 |
| CC(C)CCOCCC(C)C | kg/m3 | 764.59 |
| CCCCOCC | kg/m3 | 738 |
| CCOC(C)(C)C | kg/m3 | 729.2 |
| CC(C)OC(C)C | kg/m3 | 712.89 |
